The following molecules are listed with their measured IC50 values.
- Test system: Human betaherpesvirus 5
- procedure.details: Compound was evaluated for the Antiviral activity against the AD169 strain of HCMV virus.
- Assay type: functional, organism-based
- condition.set: Human betaherpesvirus 5
Answer by giving the amount and then stating its unit.

* OC[C@H]1O[C@@H](n2c(Cl)nc3cc(Cl)c(Cl)cc32)[C@H](O)[C@@H]1O | 2.6 µM
* OC[C@H]1O[C@H](n2c(Cl)nc3cc(Cl)c(Cl)cc32)[C@@H](O)[C@H]1O | 9 µM
* CCCNc1nc2cc(Cl)c(Cl)cc2n1[C@@H]1O[C@H](CO)[C@@H](O)[C@H]1O | 32 µM

Query block: For `CCCNc1nc2cc(Cl)c(Cl)cc2n1[C@@H]1O[C@@H](CO)[C@@H](O)[C@H]1O` , what is its reported IC50?
Result block: 11 µM
